B1: CPEB3 Ribozyme (parent)
chain: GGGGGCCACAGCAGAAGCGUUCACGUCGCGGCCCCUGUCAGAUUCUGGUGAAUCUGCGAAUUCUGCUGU

- Variants of: B1
- Procedure text: self-cleavage, relative activity (ratio to wild type); higher = more cleavage; co-transcriptional
Quantity: self-cleavage
// no unit, no text: just the number

May I ask what self-cleavage has been recorded for GGGGGCCACAGCAGAAGGGUUCACGUCGCGGGCCCUGUCAGAUUCUGGUGAAUCUGCGAAUUCUGCUGU ?
0.195

May I ask what self-cleavage has been recorded for GGGGGCCACAACAGAAGCGUUCACGUCGCGGCCCCUGUCAGGUUCUGGUGAAUCUGCGAAUUCUGCUGU ?
0.586

May I ask what self-cleavage has been recorded for GGGGGCCACAGCAGAAGCGUUCACGUCGCGGGCCCUGUCAGAUUCUGGUGAAUCUGCGAAUUCUGCGGU ?
0.584

May I ask what self-cleavage has been recorded for GGGGGCCACAGCAGAAGCGUUGACGUCGCGGCCCCUGUCAGAUUCUGGUGAAUCUGCGAAUUCCGCUGU ?
0.205

May I ask what self-cleavage has been recorded for GGGGGCCACAGCAGAAGCAUUCACGUCGCGGCCCCUGUCAGAUUCUGGAGAAUCUGCGAAUUCUGCUGU ?
0.2
